assayed.system: human TLR8 (Homo sapiens, UniProt Q9NR97)
method.description: TLR8 inhibition reporter assay (HEK-Blue cells, SEAP reporter, R848 stimulation)
run.conditions: HEK-Blue cells overexpressing human TLR8, SEAP reporter, R848 15.9 μM
pIC50: −log10 of the molar value.
Kind request: treat 8 as inclusive, so pIC50 at 8 or higher is Yes, anything lower is No.

{"compound": "CCN(C)C1CCC(c2n[nH]c(-c3cc(C)c4ncnn4c3)c2C(C)C)CC1 (single isomer, unassigned) [Example 282]", "class.assignment": "Yes"}
{"compound": "CNCCN1CCC(NC(=O)c2n[nH]c(-c3cc(C)c4ncnn4c3)c2C(C)C)CC1", "class.assignment": "Yes"}
{"compound": "Cc1cc(-c2[nH]nc(-c3ncc4c(n3)CCN(C(C)C)C4)c2C(C)C)cn2ncnc12", "class.assignment": "No"}
{"compound": "Cc1cc(-c2[nH]nc(C(=O)NC3CCN(C4COC4)CC3)c2C(C)C)cn2ncnc12", "class.assignment": "Yes"}
{"compound": "CCN1CC(c2ccc(-c3n[nH]c(-c4cc(OC)c5ncnn5c4)c3C(C)C)cc2)C1", "class.assignment": "No"}

Incoming: Kindly determine if pIC50 recorded for Cc1cc(-c2[nH]nc(C(=O)N[C@H]3CC[C@H](N)CC3)c2C(C)C)cn2ncnc12 is above or exactly 8.
Outgoing: Yes

###

assayed.system: human TLR7 (Homo sapiens, UniProt Q9NYK1)
Sequence (Q9NYK1 27-1049): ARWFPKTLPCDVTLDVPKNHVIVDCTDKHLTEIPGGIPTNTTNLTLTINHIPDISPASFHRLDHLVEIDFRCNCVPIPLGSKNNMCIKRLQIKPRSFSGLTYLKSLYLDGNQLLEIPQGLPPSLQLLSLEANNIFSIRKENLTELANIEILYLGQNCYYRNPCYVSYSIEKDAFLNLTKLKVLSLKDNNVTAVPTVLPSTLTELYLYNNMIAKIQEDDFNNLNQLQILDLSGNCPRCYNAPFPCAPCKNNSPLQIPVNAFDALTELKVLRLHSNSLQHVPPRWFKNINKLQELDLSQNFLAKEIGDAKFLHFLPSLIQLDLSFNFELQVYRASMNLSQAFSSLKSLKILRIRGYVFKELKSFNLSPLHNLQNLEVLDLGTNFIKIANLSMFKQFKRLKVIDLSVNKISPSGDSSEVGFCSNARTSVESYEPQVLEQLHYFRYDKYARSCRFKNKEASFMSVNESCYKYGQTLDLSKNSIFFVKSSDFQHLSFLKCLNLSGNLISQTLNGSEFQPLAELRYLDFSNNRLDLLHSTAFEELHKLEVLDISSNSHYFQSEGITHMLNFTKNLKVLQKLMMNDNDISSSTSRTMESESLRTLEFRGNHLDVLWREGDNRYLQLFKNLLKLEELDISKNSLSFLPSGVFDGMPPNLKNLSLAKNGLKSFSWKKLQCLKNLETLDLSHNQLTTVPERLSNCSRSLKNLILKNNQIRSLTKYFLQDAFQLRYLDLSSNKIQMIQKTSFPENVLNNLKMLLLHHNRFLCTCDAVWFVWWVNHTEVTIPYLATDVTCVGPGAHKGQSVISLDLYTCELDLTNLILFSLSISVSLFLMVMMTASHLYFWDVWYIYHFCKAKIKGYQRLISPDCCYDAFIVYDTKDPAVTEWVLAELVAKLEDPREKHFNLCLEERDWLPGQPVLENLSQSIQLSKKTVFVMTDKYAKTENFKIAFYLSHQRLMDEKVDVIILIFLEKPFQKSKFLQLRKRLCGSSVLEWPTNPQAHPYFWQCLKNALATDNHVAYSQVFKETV
method.description: TLR7 inhibition reporter assay (HEK-Blue cells, SEAP reporter, gardiquimod stimulation)
run.conditions: HEK-Blue cells overexpressing human TLR7, SEAP reporter, gardiquimod 7.5 μM
From the text: TLR7/8/9 Inhibition Reporter Assays HEK-Blue™-cells (Invivogen) overexpressing human TLR7, TLR8 or TLR9 receptors were used for screening inhibitors of these receptors using an inducible SEAP (secreted embryonic alkaline phosphatase) reporter gene under the control of the IFN-β minimal promoter fused to five NF-κB and AP-1-binding sites. […]
quantity: pIC50
Numbers only, as −log10 of the molar value.

{"compound.smiles": "Cc1cc(-c2[nH]nc(C(=O)NC3CCN(C4COC4)CC3)c2C(C)C)cn2ncnc12", "assay.value": 9.24}
{"compound.smiles": "Cc1cc(-c2[nH]nc(C(=O)N(C)C)c2C(C)C)cn2ncnc12", "assay.value": 8.40}
{"compound.smiles": "Cc1cc(-c2[nH]nc(C(=O)N[C@H]3CC[C@H](NCc4cncnc4)CC3)c2C(C)C)cn2ncnc12", "assay.value": 8.96}
{"compound.smiles": "COc1cc(-c2[nH]nc(-c3cnc(C4CCN(C)CC4)cn3)c2C(C)C)cn2ncnc12", "assay.value": 7.95}
{"compound.smiles": "Cc1cc(-c2c(C(C)C)c(C(=O)NC3CCN(C(C)C)CC3)nn2C)cn2ncnc12", "assay.value": 9.15}
{"compound.smiles": "COc1cc(-c2[nH]nc(-c3ccc(C4CCN(CC5(C)COC5)CC4)cc3)c2C(C)C)cn2ncnc12", "assay.value": 8.27}

For every item below, please supply its pIC50.
1. COc1c(C)c(-c2[nH]nc(-c3ccc(C4CCNCC4)cn3)c2C(C)C)cn2ncnc12
2. Cc1cc(-c2[nH]nc(-c3ccc(NC(C)C)nc3)c2C(C)C)cn2ncnc12

Outgoing:
[8.20, 8.43]

###

Assignment: determine reported IC50 for the given compounds.
assayed.system: human TLR7 (Homo sapiens, UniProt Q9NYK1)
method.description: TLR7 inhibition reporter assay (HEK-Blue cells, SEAP reporter, gardiquimod stimulation)
run.conditions: HEK-Blue cells overexpressing human TLR7, SEAP reporter, gardiquimod 7.5 μM
Excerpt: TLR7/8/9 Inhibition Reporter Assays HEK-Blue™-cells (Invivogen) overexpressing human TLR7, TLR8 or TLR9 receptors were used for screening inhibitors of these receptors using an inducible SEAP (secreted embryonic alkaline phosphatase) reporter gene under the control of the IFN-β minimal promoter fused to five NF-κB and AP-1-binding sites. […]
Numbers only, in nM.

// known answers, use as guide
{"compound": "COCC(C)N[C@H]1CC[C@@H](NC(=O)c2n[nH]c(-c3cc(C)c4ncnn4c3)c2C(C)C)CC1 (stereo partly shown)", "assay.value": 90.1}
{"compound": "Cc1cc(-c2[nH]nc(C3CCC(N4CCC(N(C)C)CC4)CC3)c2C(C)C)cn2ncnc12 (single isomer, unassigned) [Example 292]", "assay.value": 3.18}
{"compound": "Cc1cc(-c2[nH]nc(-c3nc4c(s3)CN(C3CCN(C(C)C)CC3)CC4)c2C(C)C)cn2ncnc12", "assay.value": 26.8}
{"compound": "CCC(CC)N[C@H]1CC[C@@H](NC(=O)c2n[nH]c(-c3cc(C)c4ncnn4c3)c2C(C)C)CC1", "assay.value": 78.9}
{"compound": "Cc1cc(-c2[nH]nc(C3CCC(N(C)C(=O)CN(C)C)CC3)c2C(C)C)cn2ncnc12 (stereo not shown) [Example 296]", "assay.value": 3.45}
{"compound": "Cc1cc(-c2[nH]nc(-c3ccc(N(C)C)nc3)c2C(C)C)cn2ncnc12", "assay.value": 4.87}

Now for another entry.
Incoming: Form entry - test system: human TLR7 (Homo sapiens, UniProt Q9NYK1); read-out: IC50; compound: Cc1cc(-c2[nH]nc(C(=O)C(=O)NC3CCN(C(C)C)CC3)c2C(C)C)cn2ncnc12
Outgoing: 8.89

###

assayed.system: human TLR8 (Homo sapiens, UniProt Q9NR97)
Sequence (Q9NR97 27-1041): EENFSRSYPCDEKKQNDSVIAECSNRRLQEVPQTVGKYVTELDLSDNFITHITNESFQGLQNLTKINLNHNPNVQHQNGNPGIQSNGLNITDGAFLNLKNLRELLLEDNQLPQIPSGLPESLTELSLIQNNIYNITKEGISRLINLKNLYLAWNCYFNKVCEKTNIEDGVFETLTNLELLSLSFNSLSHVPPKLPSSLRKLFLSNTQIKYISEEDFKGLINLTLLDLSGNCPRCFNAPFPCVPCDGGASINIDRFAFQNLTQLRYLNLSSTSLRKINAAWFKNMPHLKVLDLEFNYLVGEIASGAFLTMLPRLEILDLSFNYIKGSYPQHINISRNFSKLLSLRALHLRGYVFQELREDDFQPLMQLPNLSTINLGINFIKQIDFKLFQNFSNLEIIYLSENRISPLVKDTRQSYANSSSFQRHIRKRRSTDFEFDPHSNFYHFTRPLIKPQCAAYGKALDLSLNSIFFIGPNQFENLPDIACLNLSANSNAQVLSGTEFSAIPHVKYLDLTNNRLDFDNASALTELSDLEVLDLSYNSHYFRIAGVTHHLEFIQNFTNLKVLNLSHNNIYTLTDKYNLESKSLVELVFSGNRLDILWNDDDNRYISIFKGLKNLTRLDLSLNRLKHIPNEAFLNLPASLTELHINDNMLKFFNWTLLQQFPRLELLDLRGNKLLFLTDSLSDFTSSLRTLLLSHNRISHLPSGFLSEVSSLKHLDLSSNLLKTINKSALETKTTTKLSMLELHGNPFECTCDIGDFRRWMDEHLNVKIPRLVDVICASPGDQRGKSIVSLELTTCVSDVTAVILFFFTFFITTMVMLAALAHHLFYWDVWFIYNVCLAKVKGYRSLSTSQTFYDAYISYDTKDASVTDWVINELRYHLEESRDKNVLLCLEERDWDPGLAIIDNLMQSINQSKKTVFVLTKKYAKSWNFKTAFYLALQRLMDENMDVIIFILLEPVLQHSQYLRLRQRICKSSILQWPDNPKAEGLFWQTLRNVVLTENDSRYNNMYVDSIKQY
method.description: TLR8 inhibition reporter assay (HEK-Blue cells, SEAP reporter, R848 stimulation)
run.conditions: HEK-Blue cells overexpressing human TLR8, SEAP reporter, R848 15.9 μM
Text: TLR7/8/9 Inhibition Reporter Assays HEK-Blue™-cells (Invivogen) overexpressing human TLR7, TLR8 or TLR9 receptors were used for screening inhibitors of these receptors using an inducible SEAP (secreted embryonic alkaline phosphatase) reporter gene under the control of the IFN-β minimal promoter fused to five NF-κB and AP-1-binding sites. […]
pIC50: −log10 of the molar value.
Kind request: treat 8 as inclusive, so pIC50 at 8 or higher is Yes, anything lower is No.

{"compound": "Cc1cc(-c2[nH]nc(C3CCC(NC4CCN(C(C)C)CC4)CC3)c2C(C)C)cn2ncnc12 (single isomer, unassigned) [Example 288]", "class.assignment": "Yes"}
{"compound": "Cc1cc(-c2[nH]nc(C(=O)N[C@H]3CC[C@@H](NCC(C)(C)C)CC3)c2C(C)C)cn2ncnc12", "class.assignment": "No"}
{"compound": "COc1cc(-c2[nH]nc(-c3ccc(C4CN(C5CCOCC5)C4)cc3)c2C(C)C)cn2ncnc12", "class.assignment": "Yes"}

Note: attention shifts to another entry.
Incoming: Kindly determine if pIC50 recorded for Cc1cc(-c2[nH]nc(-c3ncc4c(n3)CNC4)c2C(C)C)cn2ncnc12 is above or exactly 8.
Outgoing: Yes
